system_under_test: Rap guanine nucleotide exchange factor 4 (Homo sapiens) (UniProt Q8WZA2)
Sequence (Q8WZA2 whole entry, looked up): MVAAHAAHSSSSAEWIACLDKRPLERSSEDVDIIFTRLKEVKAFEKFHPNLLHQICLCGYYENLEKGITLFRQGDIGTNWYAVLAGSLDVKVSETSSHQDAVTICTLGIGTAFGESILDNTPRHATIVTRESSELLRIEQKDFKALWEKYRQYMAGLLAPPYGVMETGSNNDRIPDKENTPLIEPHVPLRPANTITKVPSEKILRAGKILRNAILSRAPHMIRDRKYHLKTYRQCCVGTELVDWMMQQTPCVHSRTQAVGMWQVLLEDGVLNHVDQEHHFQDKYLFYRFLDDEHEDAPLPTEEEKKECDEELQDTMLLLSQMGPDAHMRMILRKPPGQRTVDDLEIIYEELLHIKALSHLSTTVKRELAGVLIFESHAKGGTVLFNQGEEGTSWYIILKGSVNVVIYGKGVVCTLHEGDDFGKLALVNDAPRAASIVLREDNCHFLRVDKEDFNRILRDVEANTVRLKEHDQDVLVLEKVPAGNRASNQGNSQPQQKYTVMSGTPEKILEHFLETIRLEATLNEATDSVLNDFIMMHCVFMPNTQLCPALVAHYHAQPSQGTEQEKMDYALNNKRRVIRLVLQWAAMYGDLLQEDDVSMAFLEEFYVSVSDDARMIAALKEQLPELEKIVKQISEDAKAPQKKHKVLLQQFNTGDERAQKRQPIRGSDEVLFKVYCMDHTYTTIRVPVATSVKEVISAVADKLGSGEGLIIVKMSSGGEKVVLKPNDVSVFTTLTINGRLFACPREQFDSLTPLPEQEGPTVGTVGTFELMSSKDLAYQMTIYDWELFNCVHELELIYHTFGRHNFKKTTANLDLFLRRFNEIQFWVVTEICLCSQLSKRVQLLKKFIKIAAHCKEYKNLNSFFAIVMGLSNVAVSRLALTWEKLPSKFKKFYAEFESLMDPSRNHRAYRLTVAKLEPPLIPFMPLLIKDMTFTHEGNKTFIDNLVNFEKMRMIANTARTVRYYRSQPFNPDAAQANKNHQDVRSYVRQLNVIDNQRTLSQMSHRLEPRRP
assay_remarks: Confirmatory qHTS for antagonist of cAMP-regulated guanine nucleotide exchange factor 4 (EPAC2) (AID 1645885); further: nearly all actives have a fitted effect of over 25% in size
setup_conditions: EPAC2 Rap1B-BODIPY-GDP exchange fluorescence, biochemical; series mostly up to 12.7 µM
Inconclusive results are not listed. The source made the active and inactive calls. The call rests on the fitted dose curve; in most records, active means well fitted inhibition curve with a large enough effect; inconclusive means small, poorly fitted or top-dose-only effect; inactive means no such curve, though single readings can be large or run the other way.

compound: CC1Cc2nc(SCC(=O)NCc3ccccc3)n(Cc3ccccc3)c(=O)c2S1 (stereo not given)
outcome: inactive

compound: COc1ccc(C(=O)Nc2ccc(-c3cc4ccccc4oc3=O)c(C)c2)cc1OC
outcome: inactive

compound: Cc1ccc(C)c(N2CCN(C(=O)CCc3nc(-c4ccc(Cl)cc4)no3)CC2)c1
outcome: inactive

compound: CC1CCc2c(sc(NC(=O)Cc3ccccc3)c2C(=O)Nc2ccc(Cl)cc2)C1 (stereo not given)
outcome: inactive

compound: O=C(CSc1nnc(CCc2ccccc2)n1-c1ccc(Cl)cc1)NCc1ccccc1
outcome: inactive

compound: COc1ccc(-c2cc(OC(=O)c3ccc(Cl)cc3)c3c(C)oc(C)c3c(=O)c2)cc1
outcome: inactive

compound: CCN(CC)c1ccc(Nc2nc(-c3cccnc3)cs2)cc1
outcome: inactive

compound: CCc1nc2c(OCCOc3ccc(F)cc3)cccn2c1N(C)C(=O)c1ccc(OC)cc1
outcome: inactive

compound: COC(=O)CSc1nc2sc3c(c2c(=O)n1-c1ccc(OC)cc1)CCN(C)C3
outcome: inactive

compound: Fc1cccc(Cc2c(-c3ccccc3)nc3ccc(Cl)cn23)c1
outcome: inactive

All values here come from PubChem BioAssay (NCATS).
